- TEST TARGET: S. pyogenes M1 GAS, streptokinase activity/viability, OD405, 6 h
- RUN DESCRIPTION: viability-normalized secreted streptokinase activity reduction – plasminogen activation absorbance, OD405, dose response (AID 1914)
Results filed as inconclusive are left out. The source made the active and inactive calls.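 How the source made its calls: active means Compounds whose fitted IC50 for cell-normalized streptokinase activity falls within a set log distance above the top dose; inactive means IC50 further above the top dose than that limit.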
One label from this list, please: t = active, f = inactive

Please review the following examples before continuing.
COMPOUND	CLASSIFICATION
CNC(CC(C)C)C(=O)NC1C(=O)NC(CC(N)=O)C(=O)NC2C(=O)NC3C(=O)NC(C(=O)NC(C(=O)O)c4cc(O)cc(O)c4-c4cc3ccc4O)C(O)c3ccc(c(Cl)c3)Oc3cc2cc(c3OC2OC(CO)C(O)C(O)C2OC2CC(C)(N)C(O)C(C)O2)Oc2ccc(cc2Cl)C1O (stereo not given)	f
Cc1ccc(C[n+]2c(-c3ccc(C)cc3)cc(-c3ccc(C)cc3)cc2-c2ccc(C)cc2)cc1	t
CCCCCCCCCCCCCCCCn1cc[n+](C)c1	f
CCN1/C(=C\C=C\C2=[N+](CC)c3ccccc3C2(C)C)C(C)(C)c2ccccc21	t

GET /call?item= "Cc1ccc(C(O)(C(=O)NNc2ccc3ccccc3n2)c2ccc(C)cc2)cc1" returns the recorded outcome of this test.
f
